system: Fibroblast; test: Incucyte cell viability with human fibroblast; format: toxicity, cell-based; settings: 12 h, 10 µM, compound concentration 10 uM, replicate number 2, timepoint 12 hours; also: unitless GR value; below 1 slowed growth and below 0 cell loss
In this section, each of the molecules is paired with its reported Growth Rate.
Give the value as a plain number.

Some entries whose results are on file:
- NC(=O)c1cccc(-c2cc(Nc3ccc(OC(F)(F)F)cc3)ncn2)c1: 0.37
- CCc1cc2c(cc1-c1cccc(S(=O)(=O)F)c1)C(C)(C)c1[nH]c3cc(C#N)ccc3c1C2=O: 0.17
- CO[C@H]1CC[C@@H](C(=O)c2ccc3nc4c(cc3c2)CCCO4)CC1: 0.87
- NCCc1cn(S(=O)(=O)c2c(Cl)nc3sccn23)c2ccccc12.O=C(O)C(=O)O: -0.5
- CC(C)(C)c1cc(NC(=O)Nc2ccc(-c3cn4c(n3)sc3cc(OCCN5CCOCC5)ccc34)cc2)no1: 1

Input: # return Growth Rate for N[C@@]1(C(=O)O)CO[C@H]2[C@H](C(=O)O)[C@H]21 , test system: Fibroblast
Output: 0.66

Input: # return Growth Rate for O=C(Nc1cc(C(F)(F)F)ccc1N1CCN(Cc2ccccn2)CC1)c1ccc(-c2ccncc2)o1 , test system: Fibroblast
Output: 0.06

Input: # return Growth Rate for CC[C@H]1OC(=O)[C@H](C)[C@@H](O[C@H]2C[C@@](C)(OC)[C@@H](O)[C@H](C)O2)[C@H](C)[C@@H](O[C@@H]2O[C@H](C)C[C@H](N(C)C)[C@H]2O)[C@@]2(C)CC(C)=C(O2)[C@H](C)[C@@H](O)[C@]1(C)O , test system: Fibroblast
Output: 0.44

Input: # return Growth Rate for CCCCCCCCc1ccc(CCC(N)(CO)CO)cc1 , test system: Fibroblast
Output: -0.71

Input: # return Growth Rate for O=C(N[C@@H]1CC[C@@H](c2cccc(F)c2F)CN(CC(F)(F)F)C1=O)N1CCC(n2c(=O)[nH]c3ncccc32)CC1 , test system: Fibroblast
Output: 0.39

Input: # return Growth Rate for CC(C)Oc1ccc(Cc2ccc(NC3=NCCN3)cc2)cc1 , test system: Fibroblast
Output: 0.19

Input: # return Growth Rate for OCCN1CCN(CCCN2c3ccccc3Sc3ccc(Cl)cc32)CC1 , test system: Fibroblast
Output: 0.42

Input: # return Growth Rate for CC#C[C@@H](CC(=O)O)c1ccc(OCc2cccc(-c3ccc(C(F)(F)F)cc3)c2)cc1 , test system: Fibroblast
Output: 0.23

Input: # return Growth Rate for O=C(O)COc1cccc(-c2ocnc2-c2nc(-c3ccccc3)c(-c3ccccc3)o2)c1 , test system: Fibroblast
Output: 0.91
